- Assay Protocol: Stability study of levorotatory enantiomer of compounds in solvent (MCT)
- Format: physicochemical
- Assay Context: dextrorotatory form, MCT solution, 5° C., Day 30
- Experimental: 2. Test method: the samples were prepared according to Table 2, wherein each sample was dispensed into 10 vials according to the lofting volume, and the samples were lofted according to Table 3. 4. The related substance was determined according to high performance liquid chromatography (General Chapter 0512, China Pharmacopoeia, 2015 Edition). […]
Examples of molecules with documented Isomer (%) follow.

Molecule | Endpoint Result
CC(C)OC(=O)OC(C)OC(=O)[C@H]1CCn2c(C(=O)c3ccccc3)ccc21 (stereo partly drawn) [N2(S)] | 5.99%
CCOC(=O)OC(C)OC(=O)[C@H]1CCn2c(C(=O)c3ccccc3)ccc21 (stereo partly drawn) [N12(S)] | 3.06%
CCOC(=O)OC(CC)OC(=O)[C@H]1CCn2c(C(=O)c3ccccc3)ccc21 (stereo partly drawn) [N15(S)] | 4.62%

Attention now turns to another entry.
## Input Find the recorded Isomer (%) belonging to CCC(OC(=O)OC(C)C)OC(=O)[C@H]1CCn2c(C(=O)c3ccccc3)ccc21 (stereo partly drawn) [N16(S)] and report it.
## Output 2.58%

----------
Examples of compounds with documented Ketorolac (%) follow.
- Assay Protocol: Stability study of levorotatory enantiomer of compounds in solvent (MCT)
- Format: physicochemical
- Assay Context: MCT solution, 25° C., Day 5
Give the value in % but do not write % after it.

Compound | Ketorolac (%)
CC(C)OC(=O)OC(C)OC(=O)[C@H]1CCn2c(C(=O)c3ccccc3)ccc21 (stereo partly drawn) [N2(S)] | 0.21
CCOC(=O)OC(CC)OC(=O)[C@H]1CCn2c(C(=O)c3ccccc3)ccc21 (stereo partly drawn) [N15(S)] | 0.03
CCOC(=O)OC(C)OC(=O)[C@H]1CCn2c(C(=O)c3ccccc3)ccc21 (stereo partly drawn) [N12(S)] | 0.03

Attention now turns to another entry.
## Input Find the recorded Ketorolac (%) belonging to CCC(OC(=O)OC(C)C)OC(=O)[C@H]1CCn2c(C(=O)c3ccccc3)ccc21 (stereo partly drawn) [N16(S)] and report it.
## Output 0.03

----------
- Assay Protocol: Stability study of levorotatory enantiomer of compounds in solvent (MCT)
- Assay type: physicochemical
- Assay Context: dextrorotatory form, MCT solution, 5° C., Day 15
Test Readout: Isomer (%)
Give the value in % but do not write % after it.

For orientation, consider the following solved cases.
Molecule | Isomer (%)
CCC(OC(=O)OC(C)C)OC(=O)[C@H]1CCn2c(C(=O)c3ccccc3)ccc21 (stereo partly drawn) [N16(S)] | 2.6
CC(C)OC(=O)OC(C)OC(=O)[C@H]1CCn2c(C(=O)c3ccccc3)ccc21 (stereo partly drawn) [N2(S)] | 5.87
CCOC(=O)OC(CC)OC(=O)[C@H]1CCn2c(C(=O)c3ccccc3)ccc21 (stereo partly drawn) [N15(S)] | 4.73

Attention now turns to another entry.
## Input Find the recorded Isomer (%) belonging to CCOC(=O)OC(C)OC(=O)[C@H]1CCn2c(C(=O)c3ccccc3)ccc21 (stereo partly drawn) [N12(S)] and report it.
## Output 3.07

----------
- Assay Protocol: Stability study of levorotatory enantiomer of compounds in solvent (MCT)
- Format: physicochemical
- Assay Context: dextrorotatory form, MCT solution, 60° C., Day 30
- Procedure: 2. Test method: the samples were prepared according to Table 2, wherein each sample was dispensed into 10 vials according to the lofting volume, and the samples were lofted according to Table 3. 4. The related substance was determined according to high performance liquid chromatography (General Chapter 0512, China Pharmacopoeia, 2015 Edition). […]
Examples of compounds with documented Isomer (%) follow.
Give the value in % but do not write % after it.

## Input Find the recorded Isomer (%) belonging to CCOC(=O)OC(C)OC(=O)[C@H]1CCn2c(C(=O)c3ccccc3)ccc21 (stereo partly drawn) [N12(S)] and report it.
## Output 3.48

## Input Find the recorded Isomer (%) belonging to CCC(OC(=O)OC(C)C)OC(=O)[C@H]1CCn2c(C(=O)c3ccccc3)ccc21 (stereo partly drawn) [N16(S)] and report it.
## Output 2.63

## Input Find the recorded Isomer (%) belonging to CC(C)OC(=O)OC(C)OC(=O)[C@H]1CCn2c(C(=O)c3ccccc3)ccc21 (stereo partly drawn) [N2(S)] and report it.
## Output 6.13

## Input Find the recorded Isomer (%) belonging to CCOC(=O)OC(CC)OC(=O)[C@H]1CCn2c(C(=O)c3ccccc3)ccc21 (stereo partly drawn) [N15(S)] and report it.
## Output 4.63
